- assayed_target: PI3Kβ (Homo sapiens, UniProt P42338)
- Construct: made in house
- Sequence (P42338 whole entry, one chain of several): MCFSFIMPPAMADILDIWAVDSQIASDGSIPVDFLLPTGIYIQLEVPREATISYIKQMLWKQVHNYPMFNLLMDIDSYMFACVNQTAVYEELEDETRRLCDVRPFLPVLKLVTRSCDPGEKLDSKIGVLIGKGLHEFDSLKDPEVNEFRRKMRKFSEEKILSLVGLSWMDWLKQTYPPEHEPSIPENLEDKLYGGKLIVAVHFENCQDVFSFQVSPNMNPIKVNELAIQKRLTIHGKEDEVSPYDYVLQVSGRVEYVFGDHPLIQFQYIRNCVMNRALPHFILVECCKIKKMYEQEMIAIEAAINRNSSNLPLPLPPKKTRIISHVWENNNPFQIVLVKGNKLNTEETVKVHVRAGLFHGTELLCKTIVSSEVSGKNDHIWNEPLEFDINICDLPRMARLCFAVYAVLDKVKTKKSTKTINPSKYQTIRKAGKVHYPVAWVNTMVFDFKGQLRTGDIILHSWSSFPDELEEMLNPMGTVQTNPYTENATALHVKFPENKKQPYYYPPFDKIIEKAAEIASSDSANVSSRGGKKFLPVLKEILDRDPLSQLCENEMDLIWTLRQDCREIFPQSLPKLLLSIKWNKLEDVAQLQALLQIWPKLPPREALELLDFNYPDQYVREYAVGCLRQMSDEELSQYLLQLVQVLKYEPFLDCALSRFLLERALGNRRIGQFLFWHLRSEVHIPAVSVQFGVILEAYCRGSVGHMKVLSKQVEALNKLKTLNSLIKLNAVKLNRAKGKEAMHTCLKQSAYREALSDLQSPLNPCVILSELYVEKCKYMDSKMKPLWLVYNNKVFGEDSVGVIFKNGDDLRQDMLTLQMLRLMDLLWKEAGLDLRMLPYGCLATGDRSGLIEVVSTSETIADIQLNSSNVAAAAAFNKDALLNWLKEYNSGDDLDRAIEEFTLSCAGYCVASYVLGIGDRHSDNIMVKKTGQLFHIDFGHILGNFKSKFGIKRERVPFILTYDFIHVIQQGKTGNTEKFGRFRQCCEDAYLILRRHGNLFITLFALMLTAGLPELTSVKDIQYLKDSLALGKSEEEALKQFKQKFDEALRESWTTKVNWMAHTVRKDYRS
- assay_method_text: TR-FRET enzymatic activity assay, PI3Kβ
- Assay type: biochemical
- conditions: recombinant heterodimeric PI3Kβ 25-50 pM, 2× Km ATP, 30 minutes at 25°C
pIC50: −log10 of the molar value.
endpoint_label: pIC50

These solved cases illustrate the format of a correct answer.
C[C@H](Nc1nc(N)nc(N)c1C#N)c1nc2c(F)ccc(Cl)c2c(=O)n1N1CCNCC1 : 8.40
C[C@H](Nc1nc(N)nc(N)c1C#N)c1nc2cccc(Cl)c2c(=O)n1N1CCN(C2COC2)CC1 : 7.03

[A] Cc1nc(N)nc(N[C@@H](C)c2nc3cccc(Cl)c3c(=O)n2N2CCN(CC(F)(F)F)CC2)c1C#N
[B] C[C@H](Nc1nc(N)nc(N)c1C#N)c1nc2cccc(Cl)c2c(=O)n1N1CCNC2(CC2)C1
[C] CC[C@H](Nc1nc(N)nc(N)c1C#N)c1nc2c(F)ccc(Cl)c2c(=O)n1N1CCN(Cc2ccccc2)CC1
[D] C[C@H](Nc1ncnc(N)c1C#N)c1nc2cccc(Cl)c2c(=O)n1N1CCNC2(CC2)C1
[E] CC(C)C[C@H](Nc1nc(N)nc(N)c1C#N)c1nc2cccc(Cl)c2c(=O)n1N1CCNCC1
# desc sort on pIC50 across 5 molecules Answer by naming the labels in the order asked.
B, D, E, C, A
(B: 8.70, D: 8.30, E: 7.43, C: 7.02, A: 6.54)

====

- assayed_target: PI3Kγ (Homo sapiens)
- Construct: made in house
- Sequence (P48736 whole entry): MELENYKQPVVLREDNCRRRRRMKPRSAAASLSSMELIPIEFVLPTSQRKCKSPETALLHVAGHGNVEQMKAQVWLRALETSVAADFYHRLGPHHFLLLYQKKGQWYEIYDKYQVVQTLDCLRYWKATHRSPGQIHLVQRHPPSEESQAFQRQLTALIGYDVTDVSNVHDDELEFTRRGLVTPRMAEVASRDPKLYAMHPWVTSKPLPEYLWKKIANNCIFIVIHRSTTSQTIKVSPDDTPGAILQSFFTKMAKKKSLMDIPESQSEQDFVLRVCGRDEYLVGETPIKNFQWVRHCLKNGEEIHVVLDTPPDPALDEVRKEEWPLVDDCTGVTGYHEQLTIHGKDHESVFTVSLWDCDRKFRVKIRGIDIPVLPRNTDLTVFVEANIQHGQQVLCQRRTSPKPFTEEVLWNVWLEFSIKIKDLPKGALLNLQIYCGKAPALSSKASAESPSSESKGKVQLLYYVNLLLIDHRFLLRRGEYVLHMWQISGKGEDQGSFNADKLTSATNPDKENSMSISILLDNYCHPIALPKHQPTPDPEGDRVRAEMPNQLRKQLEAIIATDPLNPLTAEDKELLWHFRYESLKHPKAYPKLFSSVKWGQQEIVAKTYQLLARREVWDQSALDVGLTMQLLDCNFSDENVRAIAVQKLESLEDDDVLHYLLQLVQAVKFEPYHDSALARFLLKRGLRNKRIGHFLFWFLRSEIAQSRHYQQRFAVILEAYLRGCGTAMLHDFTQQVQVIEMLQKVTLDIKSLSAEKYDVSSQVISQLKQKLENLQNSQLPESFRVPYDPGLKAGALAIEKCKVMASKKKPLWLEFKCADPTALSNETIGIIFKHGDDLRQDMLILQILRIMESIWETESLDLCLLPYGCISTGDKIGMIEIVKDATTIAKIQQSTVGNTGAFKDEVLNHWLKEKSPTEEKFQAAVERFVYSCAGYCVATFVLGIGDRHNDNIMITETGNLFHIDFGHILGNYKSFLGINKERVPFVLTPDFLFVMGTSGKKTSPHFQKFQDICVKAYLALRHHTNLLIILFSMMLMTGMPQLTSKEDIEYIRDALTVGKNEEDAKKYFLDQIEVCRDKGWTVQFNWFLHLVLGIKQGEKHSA
- Sequence (Q8WYR1 whole entry partner): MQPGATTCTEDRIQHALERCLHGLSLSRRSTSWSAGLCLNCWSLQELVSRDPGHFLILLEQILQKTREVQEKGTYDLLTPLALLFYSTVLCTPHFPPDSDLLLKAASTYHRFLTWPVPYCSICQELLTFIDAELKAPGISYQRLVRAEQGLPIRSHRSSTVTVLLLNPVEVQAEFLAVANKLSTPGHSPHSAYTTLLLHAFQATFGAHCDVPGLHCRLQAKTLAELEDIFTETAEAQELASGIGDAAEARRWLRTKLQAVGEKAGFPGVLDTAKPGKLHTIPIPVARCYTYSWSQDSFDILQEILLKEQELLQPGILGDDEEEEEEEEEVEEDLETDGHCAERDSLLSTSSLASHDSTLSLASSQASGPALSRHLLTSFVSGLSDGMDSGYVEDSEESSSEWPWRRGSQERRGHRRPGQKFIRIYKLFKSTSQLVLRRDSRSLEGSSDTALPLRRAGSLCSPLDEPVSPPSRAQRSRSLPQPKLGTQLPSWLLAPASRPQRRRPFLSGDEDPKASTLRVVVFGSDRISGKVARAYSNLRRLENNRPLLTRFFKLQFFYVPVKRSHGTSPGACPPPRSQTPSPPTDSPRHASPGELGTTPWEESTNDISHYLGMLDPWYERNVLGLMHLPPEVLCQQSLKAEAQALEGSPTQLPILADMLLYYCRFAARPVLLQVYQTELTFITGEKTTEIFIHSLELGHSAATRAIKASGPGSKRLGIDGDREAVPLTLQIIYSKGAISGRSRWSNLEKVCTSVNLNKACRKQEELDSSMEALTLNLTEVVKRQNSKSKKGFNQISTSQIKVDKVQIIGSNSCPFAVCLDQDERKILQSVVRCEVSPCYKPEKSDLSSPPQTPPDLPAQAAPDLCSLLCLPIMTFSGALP
- assay_method_text: TR-FRET enzymatic activity assay, PI3Kγ
- Type: biochemical
- conditions: recombinant heterodimeric PI3Kγ 2 nM, 2× Km ATP, 30 minutes at 25°C
pIC50: −log10 of the molar value.
endpoint_label: pIC50

[A] C[C@H](Nc1nc(N)nc(N)c1C#N)c1nc2cccc(Cl)c2c(=O)n1C1CNC1 [Compound 29]
[B] C[C@H](Nc1nc(N)nc(N)c1C#N)c1nc2cccc(Cl)c2c(=O)n1C1CCNCC1(F)F (stereo partly shown) [Compound 38]
Between A and B , which one has the lower reported pIC50 value? Write down the label attached to your selection.
A
(A: 5.51, B: 5.82)

====

- assayed_target: PI3Kδ (Homo sapiens)
- Construct: made in house
- Sequence (O00329 whole entry): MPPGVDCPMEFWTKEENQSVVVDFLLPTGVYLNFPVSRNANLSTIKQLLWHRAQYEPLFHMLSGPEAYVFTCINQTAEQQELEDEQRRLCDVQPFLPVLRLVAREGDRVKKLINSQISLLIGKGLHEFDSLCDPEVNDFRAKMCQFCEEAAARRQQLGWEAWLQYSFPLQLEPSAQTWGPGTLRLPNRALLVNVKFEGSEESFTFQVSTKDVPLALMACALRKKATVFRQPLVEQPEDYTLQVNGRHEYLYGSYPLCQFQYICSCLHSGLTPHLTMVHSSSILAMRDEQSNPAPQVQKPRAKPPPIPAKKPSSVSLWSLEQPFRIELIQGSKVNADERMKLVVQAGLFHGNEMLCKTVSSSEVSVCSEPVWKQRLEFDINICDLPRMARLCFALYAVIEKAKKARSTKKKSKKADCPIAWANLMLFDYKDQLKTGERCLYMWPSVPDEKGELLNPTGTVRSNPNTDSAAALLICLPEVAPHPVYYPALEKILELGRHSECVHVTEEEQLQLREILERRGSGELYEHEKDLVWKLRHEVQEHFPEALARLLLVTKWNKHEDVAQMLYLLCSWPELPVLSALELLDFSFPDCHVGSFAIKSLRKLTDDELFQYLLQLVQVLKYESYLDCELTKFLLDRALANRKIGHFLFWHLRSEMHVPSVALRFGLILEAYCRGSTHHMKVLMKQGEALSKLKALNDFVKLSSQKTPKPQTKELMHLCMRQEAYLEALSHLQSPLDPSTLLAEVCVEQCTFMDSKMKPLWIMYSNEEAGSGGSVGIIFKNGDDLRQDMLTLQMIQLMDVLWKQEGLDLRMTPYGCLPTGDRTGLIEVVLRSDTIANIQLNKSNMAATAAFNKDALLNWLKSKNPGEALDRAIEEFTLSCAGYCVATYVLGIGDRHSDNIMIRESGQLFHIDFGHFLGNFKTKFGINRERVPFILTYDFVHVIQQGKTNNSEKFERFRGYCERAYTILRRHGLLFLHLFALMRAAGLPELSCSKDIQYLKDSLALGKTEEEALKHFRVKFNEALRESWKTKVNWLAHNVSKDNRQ
- Sequence (P27986 whole entry partner): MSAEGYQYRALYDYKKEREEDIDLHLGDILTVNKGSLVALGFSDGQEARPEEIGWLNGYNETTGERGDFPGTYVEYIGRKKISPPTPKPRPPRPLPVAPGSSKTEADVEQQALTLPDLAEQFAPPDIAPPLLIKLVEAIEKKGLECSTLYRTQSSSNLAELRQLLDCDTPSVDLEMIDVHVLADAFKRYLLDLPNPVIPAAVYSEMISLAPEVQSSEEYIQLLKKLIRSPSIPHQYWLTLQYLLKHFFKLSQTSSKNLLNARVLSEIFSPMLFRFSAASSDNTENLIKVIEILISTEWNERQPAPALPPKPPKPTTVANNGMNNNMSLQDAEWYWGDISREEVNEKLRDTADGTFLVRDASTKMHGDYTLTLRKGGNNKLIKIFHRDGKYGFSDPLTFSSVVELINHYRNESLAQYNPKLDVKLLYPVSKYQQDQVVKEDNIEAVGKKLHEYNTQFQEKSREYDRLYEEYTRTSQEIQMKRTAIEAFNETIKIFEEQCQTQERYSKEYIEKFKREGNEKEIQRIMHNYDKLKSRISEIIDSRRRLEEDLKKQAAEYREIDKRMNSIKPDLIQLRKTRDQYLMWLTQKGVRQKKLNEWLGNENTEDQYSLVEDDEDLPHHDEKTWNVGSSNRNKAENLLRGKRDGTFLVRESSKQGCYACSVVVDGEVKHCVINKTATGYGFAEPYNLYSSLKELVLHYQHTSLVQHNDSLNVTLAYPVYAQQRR
- assay_method_text: TR-FRET enzymatic activity assay, PI3Kδ
- Type: biochemical
- Description: The compounds of formula (I) were characterized for their enzymatic activity against the PI3K isoforms. The activities were measured using a time-resolved fluorescence resonance energy transfer (TR-FRET) assay.
endpoint_label: IC50 (nM)

Cc1nc(N)nc(N[C@H](c2nc3cccc(Cl)c3c(=O)n2C2[C@H]3CNC[C@@H]23)C2CC2)c1C#N (stereo in doubt) : 0.3

[P] C[C@H](Nc1ncnc2ccc(Cl)nc12)c1nc2c(Cl)ccc(Cl)c2c(=O)n1N1CCNCC1
[Q] N#Cc1c(N)nc(N)nc1N[C@H](c1nc2cccc(Cl)c2c(=O)n1C1[C@H]2CNC[C@@H]12)C1CC1 (stereo in doubt)
[R] C[C@H](Nc1nc(N)nc(N)c1C#N)c1nc2cccc(Cl)c2c(=O)n1C1[C@H]2CNC[C@@H]12 (stereo in doubt)
[S] C[C@H](Nc1nc(N)nc(N)c1C#N)c1nc2c(Cl)ccc(Cl)c2c(=O)n1N1CCNCC1
# desc sort on IC50 across 4 molecules Answer by naming the labels in the order asked.
S, P, R, Q

====

- assayed_target: PI3Kγ (Homo sapiens)
- Construct: made in house
- assay_method_text: TR-FRET enzymatic activity assay, PI3Kγ
- Type: biochemical
- conditions: recombinant heterodimeric PI3Kγ 2 nM, 2× Km ATP, 30 minutes at 25°C
endpoint_label: IC50 (µM)

C[C@H](Nc1ncnc(N)c1C#N)c1nc2cccc(Cl)c2c(=O)n1N1CCNC(C(F)(F)F)C1 (stereo partly shown) [Compound 62] : 8.4
C[C@H](Nc1ncnc2[nH]cc(Br)c12)c1nc2cccc(Cl)c2c(=O)n1N1CCNCC1 [Compound 69] : 7.4
C[C@H](Nc1nc(N)nc(N)c1C#N)c1nc2cccc(Cl)c2c(=O)n1N1CCC(N)CC1 [Compound 129] : 5
C[C@H](Nc1nc(N)nc(N)c1C#N)c1nc2c(F)ccc(Cl)c2c(=O)n1N1CCNCC1 [Compound 54] : 1.9

[a] N#Cc1c(N)nc(N)nc1N[C@H](c1nc2c(F)ccc(Cl)c2c(=O)n1N1CCNCC1)C1CC1 [Compound 48]
[b] Cc1nc(N)nc(N[C@@H](C)c2nc3c(F)ccc(Cl)c3c(=O)n2N2CCNCC2)c1C#N [Compound 21]
[c] C[C@H](Nc1nc(N)nc(N)c1C#N)c1nc2cccc(Cl)c2c(=O)n1N1CCN(C2COC2)CC1 [Compound 97]
# desc sort on IC50 across 3 molecules Answer by naming the labels in the order asked.
a, b, c

====

- assayed_target: PI3Kβ (Homo sapiens, UniProt P42338)
- Construct: made in house
- assay_method_text: TR-FRET enzymatic activity assay, PI3Kβ
- Assay type: biochemical
- conditions: recombinant heterodimeric PI3Kβ 25-50 pM, 2× Km ATP, 30 minutes at 25°C
pIC50: −log10 of the molar value.
endpoint_label: pIC50

These solved cases illustrate the format of a correct answer.
O=c1c2c(Cl)cccc2nc([C@@H](Nc2ncnc3scnc23)C2CC2)n1N1CCNCC1 : 7.74
Nc1nc(N)c(Cl)c(N[C@H](c2nc3cccc(Cl)c3c(=O)n2N2CCOCC2)C2CC2)n1 : 5.74
C[C@H](Nc1ncnc(N)c1C#N)c1nc2cccc(Cl)c2c(=O)n1N1CCNCC1 : 7.85

[A] C[C@H](Nc1nc(N)nc(N)c1C#N)c1nc2cccc(Cl)c2c(=O)n1[C@@H]1CCCNCC1
[B] C[C@H](Nc1nc(N)nc(N)c1C#N)c1nc2c(F)ccc(Cl)c2c(=O)n1C1[C@H]2CNC[C@@H]12 (stereo in doubt)
Among A and B , which shows a numerically higher pIC50 result? Write down the label attached to your selection.
B
(B: 8.52, A: 8.05)

[a] C[C@H](NC(=O)c1nc(Cl)cnc1N)c1nc2cccc(Cl)c2c(=O)n1N1CCNCC1
[b] C[C@H](Nc1ncnc(N)c1C#N)c1nc2cccc(Cl)c2c(=O)n1C1CCNCC1
[c] C[C@H](Nc1nc(N)nc(N)c1C#N)c1nc2cccc(Cl)c2c(=O)n1N1CCN(C)CC1
Sort low-to-high on pIC50, please. Answer by naming the labels in the order asked.
b, a, c
(b: 7.08, a: 7.49, c: 8.30)

[a] C[C@H](Nc1ncnn2ccnc12)c1nc2cccc(Cl)c2c(=O)n1N1CCNCC1
[b] C[C@H](Nc1ncnc2scc(Cl)c12)c1nc2cccc(Cl)c2c(=O)n1N1CCNCC1
[c] Cc1nc(N)nc(N[C@@H](C)c2nc3cccc(Cl)c3c(=O)n2C2CCN(CC(F)(F)F)CC2)c1C#N
[d] C[C@H](Nc1nc(N)nc(N)c1C#N)c1nc2cccc(Cl)c2c(=O)n1C1CNC1
Sort low-to-high on pIC50, please. Answer by naming the labels in the order asked.
b, c, d, a
(b: 6.24, c: 6.59, d: 7.04, a: 7.38)

[P] C[C@H](Nc1nc(N)nc(N)c1C#N)c1nc2cccc(Cl)c2c(=O)n1N1CCN(CC(F)(F)F)CC1
[Q] C[C@H](Nc1nc(N)nc(N)c1C#N)c1nc2cccc(Cl)c2c(=O)n1C1CCNCC1(F)F (stereo partly drawn)
[R] C[C@H](Nc1nc(N)nc(N)c1C#N)c1nc2c(Cl)cc(F)cc2c(=O)n1N1CCNCC1
[S] C[C@H](Nc1ncnc2[nH]cnc12)c1nc2cccc(Cl)c2c(=O)n1C1CCN(C)CC1
[T] C[C@H](Nc1ncnc2ccc(Cl)nc12)c1nc2cccc(Cl)c2c(=O)n1N1CCNCC1
Sort low-to-high on pIC50, please. Answer by naming the labels in the order asked.
S, P, Q, R, T

====

- assayed_target: PI3Kβ (Homo sapiens, UniProt P42338)
- Construct: made in house
- assay_method_text: TR-FRET enzymatic activity assay, PI3Kβ
- Type: biochemical
- conditions: recombinant heterodimeric PI3Kβ 25-50 pM, 2× Km ATP, 30 minutes at 25°C
pIC50: −log10 of the molar value.
endpoint_label: pIC50

These solved cases illustrate the format of a correct answer.
C[C@H](Nc1ncnc(N)c1C#N)c1nc2cccc(Cl)c2c(=O)n1N1CCN(C)CC1 [Compound 5] : 6.72
N#Cc1c(N)nc(N)nc1N[C@H](c1nc2c(F)ccc(F)c2c(=O)n1N1CCNCC1)C1CC1 [Compound 127] : 7.55
CC[C@H](Nc1nc(N)nc(N)c1C#N)c1nc2cccc(Cl)c2c(=O)n1C1CCNCC1 [Compound 22] : 7.82

[I] C[C@H](Nc1nc(N)nc(N)c1Cl)c1nc2c(F)ccc(Cl)c2c(=O)n1N1CCNCC1 [Compound 20]
[II] Cc1nc(N)c(C(=O)N[C@@H](C)c2nc3cccc(Cl)c3c(=O)n2N2CCNCC2)nc1C [Compound 59]
Between I and II , which one has the lower reported pIC50 value? Write down the label attached to your selection.
II
(II: 7.14, I: 7.40)

[A] C[C@H](Nc1nc(N)nc(N)c1Cl)c1nc2cccc(Cl)c2c(=O)n1[C@H]1CCCNCC1 [Compound 12]
[B] C[C@H](Nc1nc(N)nc(N)c1C#N)c1nc2cccc(Cl)c2c(=O)n1C1CCNCC1 [Compound 26]
[C] C[C@H](Nc1ncnc(N)c1C#N)c1nc2cccc(Cl)c2c(=O)n1N1CCCNCC1 [Compound 67]
[D] N#Cc1c(N)nc(N)nc1N[C@H](c1nc2c(Cl)ccc(Cl)c2c(=O)n1C1CCC1)C1CC1 [Compound 138]
# desc sort on pIC50 across 4 molecules Answer by naming the labels in the order asked.
B, C, D, A
(B: 8.70, C: 7.66, D: 7.24, A: 6.18)

[I] C[C@H](Nc1nc(N)nc(N)c1C#N)c1nc2cccc(Cl)c2c(=O)n1C1CCN(CC(F)(F)F)CC1 [Compound 100]
[II] Cc1nc(N)nc(N[C@H](c2nc3cccc(Cl)c3c(=O)n2N2CCNCC2)C2CC2)c1C#N [Compound 46]
[III] C[C@H](Nc1ncnc2scnc12)c1nc2cccc(Cl)c2c(=O)n1N1CCNCC1 [Compound 70]
[IV] C[C@H](Nc1nc(N)nc(N)c1Cl)c1nc2cccc(Cl)c2c(=O)n1C1CCNCC1 [Compound 25]
# desc sort on pIC50 across 4 molecules Answer by naming the labels in the order asked.
II, III, IV, I
(II: 8.70, III: 7.85, IV: 7.00, I: 6.01)

[A] Cc1nc(N)nc(N[C@@H](C)c2nc3cccc(Cl)c3c(=O)n2C2CCNCC2)c1C#N [Compound 24]
[B] C[C@H](Nc1ncnc(N)c1C#Cc1ccc(F)cn1)c1nc2cccc(Cl)c2c(=O)n1N1CCNCC1 [Compound 58]
[C] C[C@H](Nc1ncnc(N)c1C#N)c1nc2cccc(Cl)c2c(=O)n1N1CCNC(C(F)(F)F)C1 (stereo partly shown) [Compound 62]
# desc sort on pIC50 across 3 molecules Answer by naming the labels in the order asked.
A, B, C
(A: 8.70, B: 8.00, C: 6.09)

# credit: patent EP3154958B1
